Target: T1, human melanocortin-3 receptor (hMC3-R) (human, UniProt P41968 1-323)
T1 construct: whole, on cells; membranes prepared from hMC3-R cells were used; also called Melanocortin Receptor 3
T1 sequence (P41968 whole entry): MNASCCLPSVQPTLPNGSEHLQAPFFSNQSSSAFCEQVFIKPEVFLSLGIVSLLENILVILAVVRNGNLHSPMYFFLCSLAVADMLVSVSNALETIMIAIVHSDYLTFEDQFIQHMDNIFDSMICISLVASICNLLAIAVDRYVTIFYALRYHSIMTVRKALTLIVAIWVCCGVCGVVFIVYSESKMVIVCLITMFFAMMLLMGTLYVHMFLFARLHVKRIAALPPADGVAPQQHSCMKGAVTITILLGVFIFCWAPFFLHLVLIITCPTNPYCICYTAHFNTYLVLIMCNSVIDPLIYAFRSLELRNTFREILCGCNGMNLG
Test: 125I-NDP-α-MSH competition, hMC3-R membranes
Square brackets hold non-standard residues; d marks the D form. Ends that are not written are not given here. Nle = CCCC[C@H](N)C(=O)O
Binary label based on % Inhibition at 1 µM with cut-off 50%: below gives Yes, not below gives No.

The examples below pair each entry with its known result.
# Binder, Answer Label
rows = [
    ("YV[Nle]GH[dF]RWDCF-NH2 (also: oxorhenium(V) N3S1 chelate: C10 SG + backbone N of W8, D9, C10, bridge at 10 via Re(V)=O, other end not in the chain) [metallopeptide 5-2]", "Yes"),
    ("YV[Nle]GHCRWDRF-NH2 (also: oxorhenium(V) N3S1 chelate: C6 SG + backbone N of G4, H5, C6, bridge at 6 via Re(V)=O, other end not in the chain) [metallopeptide 5-6]", "Yes"),
    ("YVCGH[dF]RWDRF-NH2 (also: oxorhenium(V) N3S1 chelate complex at Cys3) [metallopeptide 5-9]", "No"),
    ("YV[Nle]GH[dF]RWDRC-NH2 (also: oxorhenium(V) N3S1 chelate: C11 SG + backbone N of D9, R10, C11, bridge at 11 via Re(V)=O, other end not in the chain) [metallopeptide 5-1]", "No"),
    ("YV[Nle]GH[dF]CWDRF-NH2 (also: oxorhenium(V) N3S1 chelate: C7 SG + backbone N of H5, F6, C7, bridge at 7 via Re(V)=O, other end not in the chain) [metallopeptide 5-5]", "Yes"),
]

Lab note: next binder to report on.
**Q:** API: query returns whether the binder falls strictly under 50% in % Inhibition at 1 µM. Query: YV[Nle]GH[dF]RCDRF-NH2 (also: oxorhenium(V) N3S1 chelate: C8 SG + backbone N of F6, R7, C8, bridge at 8 via Re(V)=O, other end not in the chain) [metallopeptide 5-4]
**A:** Yes
